Tested on: Citrobacter freundii
measurementProtocol: Antibacterial activity against ceftazidime-nonsusceptible Citrobacter freundii assessed as resistant isolates by CLSI M7-A7 broth microdilution method
Type: functional
measurementLabel: Activity (%)

INSERT INTO results (compound, measurementlabel, reportedmeasurement) VALUES
  ('CCN1CCN(C(=O)N[C@@H](C(=O)N[C@@H]2C(=O)N3[C@@H]2SC(C)(C)[C@@H]3C(=O)O)c2ccccc2)C(=O)C1=O [PIPERACILLIN]', 'Activity', 39.4),
  ('CC(C)(O/N=C(\C(=O)N[C@@H]1C(=O)N2C(C(=O)[O-])=C(C[n+]3ccccc3)CS[C@H]12)c1csc(N)n1)C(=O)O [CEFTAZIDIME]', 'Activity', 97),
  ('C[C@H]1COc2c(N3CCN(C)CC3)c(F)cc3c(=O)c(C(=O)O)cn1c23.C[C@H]1COc2c(N3CCN(C)CC3)c(F)cc3c(=O)c(C(=O)O)cn1c23.O [LEVOFLOXACIN]', 'Activity', 24.2),
  ('C[C@@H](O)[C@H]1C(=O)N2C(C(=O)O)=C(SCCNC=N)C[C@H]12 [IMIPENEM ANHYDROUS]', 'Activity', 0),
  ('CC1(C)S[C@@H]2[C@H](NC(=O)[C@H](N)c3ccccc3)C(=O)N2[C@H]1C(=O)O [AMPICILLIN]', 'Activity', 100),
  ('CO/N=C(\C(=O)N[C@@H]1C(=O)N2C(C(=O)O)=C(CSc3nc(=O)c(O)nn3C)CS[C@H]12)c1csc(N)n1 [CEFTRIAXONE]', 'Activity', 0);
